Provenance of the data: PubChem BioAssay (NCI)

- System: MDA-MB-435 melanoma
- Assay Procedure: NCI-60 one-dose screen, 48 h
- Assay Conditions: 10 µM unless noted
Compounds without any hit were thinned out: in the full panel of roughly 83,000, 20% have a hit. Calls of active or inactive are those of the source. How the source made its calls: active means growth percent below 10; inactive means the rest.
Tick one outcome: active, inactive

Some solved cases for reference:
| Smiles String | Class Assignment |
| --- | --- |
| Cn1cc(C2=C(c3coc4cc(Br)ccc34)C(=O)NC2=O)c2ccccc21 | active |
| CN1CCN(c2ccc(Nc3nc(NCCCNS(=O)(=O)c4ccc(C(F)(F)F)cc4)c4sccc4n3)cc2)CC1 | active |
| Cc1ccc(C(=O)CSc2nnc(-c3ccc(-c4ccc(Cl)cc4)nc3C)o2)cc1 | inactive |

Which outcome was entered for the molecule NCCNC(=O)c1cccc(COc2ccccc2NC(=O)c2cc(Br)c(Br)[nH]2)c1 in this test?
inactive

Now this one: O=C(/C=C/c1cccc(C(F)(F)F)c1)Nc1cccc(C(F)(F)F)c1
inactive

Now this one: CCN(CC)c1ccc(/C=N/NC(=O)c2ccc(NS(C)(=O)=O)cc2)c(O)c1
inactive

----------
- System: U251 CNS
- Assay Procedure: NCI-60 one-dose screen, 48 h (100 = growth as untreated, 0 = no growth, -100 = all killed)
- Assay Conditions: 10 µM unless noted
The panel holds about 83,000 compounds, 20% with a hit somewhere; the sample as a whole holds those more often.
Class assignment keyed on growth, ranges LOW: < 30%; MID: ≥ 30% and < 80%; HIGH: ≥ 80%

Some solved cases for reference:
| Compound | Class Assignment |
| --- | --- |
| CN1CCN(c2ccc(Nc3nc(NCCNS(=O)(=O)c4ccccc4)c4sccc4n3)cc2)CC1 | HIGH |
| Clc1ccc2c(N/N=C/c3c[nH]c4ccccc34)ccnc2c1 | LOW |

Which class holds C#CCOc1cccc(/C(N)=N/C(N)=N/c2nc3ccccc3s2)c1 ?
HIGH

Now this one: CCOC(=O)C1=C(C)NC(C)=C(C(=O)OC(C)C)C1c1cccc(C#N)c1 (stereo unspecified)
HIGH

Now this one: O=C1[C@@H]2Cc3c([nH]c4ccccc34)[C@H](c3ccc(Cl)cc3)N2C(=O)CN1C1CCN(Cc2ccccc2)CC1
MID

Now this one: CCN(CC)c1ccc(/C=N/NC(=O)c2ccc(S(N)(=O)=O)cc2)cc1
MID

Now this one: O=S(=O)(NCCCNc1nccc(-c2[nH]c(-c3ccccc3)nc2-c2ccc(F)c(O)c2)n1)c1ccc(C(F)(F)F)cc1
MID

Now this one: Cc1csc(/N=C(N)/N=C(\N)c2cccnc2)n1
MID

Now this one: O=C1C(SCc2ccccc2)=C(Cl)CN1c1ccc(Cl)cc1
HIGH

Now this one: O=C(NNc1nc2cc(F)cc(F)c2n2cccc12)c1cccnn1
LOW

Now this one: C=C1CCc2nc(SCC(=O)O)ccc2N1
HIGH

Now this one: CC(C)=CCC[C@](C)(O)[C@H]1CC[C@]2(C)[C@@H]1CC[C@@H]1[C@@]3(C)CC[C@H](N)C(C)(C)[C@@H]3CC[C@]12C
MID

----------
- Test system: RPMI-8226 leukemia
- Assay Procedure: NCI-60 one-dose screen, 48 h
- Assay Conditions: 10 µM unless noted
About 83,000 compounds went through this panel and 20% of them were active in at least one assay; those are over-represented in the sample as a whole. Calls of active or inactive are those of the source. How the source made its calls: active means growth percent below 10; inactive means the rest.
Tick one outcome: active, inactive

| Compound | Class Assignment |
| --- | --- |
| Cc1ccc(Nc2nc(SC(C)C)nc(-c3ccccc3)c2C#N)cc1 | inactive |
| Cc1ccc(C)c(NC2=C(Cl)C(=O)c3nc(C)ccc3C2=O)c1 | active |
| Cc1ccsc1[C@H]1c2[nH]c3ccccc3c2C[C@H]2C(=O)N(CCCCCCC(=O)NO)CC(=O)N12 | inactive |
| Cc1cccc(N2CCN(C3=C(Cl)C(=O)c4ncccc4C3=O)CC2)c1 | inactive |
| Cc1nc(/N=C(N)/N=C(\N)c2cccc(Br)c2)sc1C | inactive |

Which outcome was entered for the compound CCc1cc2c(cc1Cl)nc1c(=O)[nH]c(=O)nc-1n2CCOCC(C)(C)C in this test?
inactive

Now this one: O=C1Nc2ccc(F)cc2/C1=C\C(=O)c1ccc(NS(=O)(=O)c2ccccc2)cc1
inactive

Now this one: Clc1ccc2[nH]cc(-c3cncn3CCc3ccc4c(c3)OCO4)c2c1
inactive

Now this one: O=C(Nc1ccccc1)Nc1nc2ccc([N+](=O)[O-])cc2[nH]1
inactive

Now this one: CCCC[n+]1ccc(SCC(=O)n2ccc3ccccc32)c2ccccc21
inactive

Now this one: Nc1ccc(Nc2ncnc3sc4c(c23)CCN(Cc2ccccc2)C4)cc1
inactive

Now this one: O=C(CCCCCCNC(=O)C(O)(O)C(F)(F)F)Nc1ccc(Br)cc1
inactive

Now this one: COc1ccccc1/C=C/C(=O)c1nnn(-c2ccc(F)cc2)c1C
inactive

Now this one: CC1=C(C)C(=O)C(Nc2ccc3c(c2)OCCO3)=C(Br)C1=O
inactive

----------
- Test system: KM12 colon
- Assay Procedure: NCI-60 one-dose screen, 48 h (100 = growth as untreated, 0 = no growth, -100 = all killed)
- Assay Conditions: 10 µM unless noted
This is part of a sample that, as a whole, favours compounds with a hit. Of some 83,000 tested, about 20% had one in any assay.
We use 80% as the dividing line for growth: on or above the line is TRUE, below is FALSE.

Some solved cases for reference:
| Smiles String | Target Or Test System | Class Assignment |
| --- | --- | --- |
| CCC(=C(c1ccc(OCCN(C)C)cc1)c1ccc(OCCN(C)C)cc1)c1ccc(Cl)cc1 | KM12 colon | FALSE |
| CCOC(=O)C(=O)Nc1ccc2c(ccn2C(=O)c2cccc(F)c2)c1 | KM12 colon | TRUE |
| Cn1cc(-c2nnc(N)nc2-c2c[nH]c3ccc(Br)cc23)c2cc(Br)ccc21 | KM12 colon | TRUE |
| COc1cccc(N2CCN(C3=C(Cl)C(=O)c4ncccc4C3=O)CC2)c1 | KM12 colon | TRUE |

Tell me whether growth is at least 80% here: Cc1cc(C)cc(NC2=C(Cl)C(=O)c3nc(C)ccc3C2=O)c1
FALSE

----------
- Test system: CCRF-CEM leukemia
- Assay Procedure: NCI-60 one-dose screen, 48 h (100 = growth as untreated, 0 = no growth, -100 = all killed)
- Assay Conditions: 10 µM unless noted
About 83,000 compounds went through this panel and 20% of them were active in at least one assay; those are over-represented in the sample as a whole.
We use 70% as the dividing line for growth: on or above the line is met, below is not met.

| Compound | Target Or Test System | Class Assignment |
| --- | --- | --- |
| CCOC(=O)c1c(NCC(=O)Nc2cccc([N+](=O)[O-])c2)sc(C(C)=O)c1C | CCRF-CEM leukemia | not met |
| CC(C)Sc1nc(-c2ccccc2)c(C#N)c(N2CCOCC2)n1 | CCRF-CEM leukemia | met |
| COc1cccc2c1[C@H](OC)[C@]13O[C@@]1(C2=O)[C@H](O)[C@H](C)[C@@](O)(C(=O)[C@@H]1O[C@H]1C)[C@@H]3O | CCRF-CEM leukemia | not met |
| O=C(CN1CCN(c2cc(=O)[nH]c3ccc(F)cc23)CC1)N(c1ccccc1)c1ccccc1 | CCRF-CEM leukemia | met |
| Cn1c(SCC(=O)c2ccco2)nc2ccccc2c1=O | CCRF-CEM leukemia | met |
| O=C(Nc1ccccc1)Nc1nc2ccc([N+](=O)[O-])cc2[nH]1 | CCRF-CEM leukemia | not met |

Tell me whether growth is at least 70% here: COc1cc(C(=O)c2cc(C(C)=O)c3c(C)cccn23)cc(OC)c1OC
met

Now this one: O=C(/C=C/c1cc(Cl)ccc1Cl)Nc1ncc(Cc2ccc(Cl)cc2)s1
not met

----------
- Test system: NCI-H522 lung
- Assay Procedure: NCI-60 one-dose screen, 48 h (100 = growth as untreated, 0 = no growth, -100 = all killed)
- Assay Conditions: 10 µM unless noted
- Protocol: Growth inhibition of the NCI-H522 human Non-Small Cell Lung tumor cell line is measured as a screen for anti-cancer activity. Cells are grown in 96 well plates and exposed to the test compound for 48 hours. Compounds are tested at a single concentration, which is 10^-5 M for most compounds. The reported endpoint is percent growth (GI% or GIPRCNT), where numbers from 0 - 100% represent growth inhibition, and numbers from -100% - 0 represent cell death. […]
Compounds without any hit were thinned out: in the full panel of roughly 83,000, 20% have a hit.
Flag rule - growth less than 90% flags true; the remaining entries get false.

Some solved cases for reference:
| Compound | Target Or Test System | Class Assignment |
| --- | --- | --- |
| Cn1cc(C2=C(c3coc4cc(Br)ccc34)C(=O)NC2=O)c2ccccc21 | NCI-H522 lung | true |
| CC(C)C(/C=C/c1[nH]ncc1-c1cc(Cl)ccc1O)N1CCOCC1 (centres undefined) | NCI-H522 lung | false |
| CN1CCN(Cc2ccc(NC(=O)c3cncc(C#Cc4cnc5ccc(O[C@@H]6CCOC6)nn45)c3)cc2C(F)(F)F)CC1 | NCI-H522 lung | true |
| O=C(Nc1ccc(Cl)c(C(F)(F)F)c1)Nc1ccc2c(ccn2C(=O)c2cccc(F)c2)c1 | NCI-H522 lung | true |
| CCCCCCCCCCCC(=O)NC(C)(C)C(=O)N1CCCC1C(=O)NC(C)(C)C(=O)NC(C)(C)C(=O)N1CCCC1C(=O)NC(C)(C)C(=O)NC(C)(C)C(=O)N1CCCC1C(=O)NC(C)C(=O)NCCC(=O)NC(C)C(=O)NC(C)(C)C(=O)NC(C)(C)C(=O)NC(C)(C)C(=O)NCCC(=O)NC(C)(C)C(=O)NC(C)(C)C(=O)NC(C)(C)C(=O)NC(C)C(=O)NCCC(=O)O (centres undefined) | NCI-H522 lung | true |
| C[C@H]1OCC2(CCN(c3cnc(C(=O)Nc4cc(F)cc5cccnc45)cn3)CC2)[C@H]1N | NCI-H522 lung | true |

Is growth of C#C[C@]1(O)CC[C@H]2[C@@H]3CC=C4c5sc(Nc6cc(Cl)ccc6OC)nc5CC[C@]4(C)[C@H]3CC[C@@]21C strictly below 90%?
true

Now this one: Cn1cc(-c2nn3cc(-c4ccncc4)nc3s2)c2cc(Br)ccc21
true

Now this one: COC(=O)CNC(=O)c1cccc(-c2cc(=O)c3c(OC)c(OC)c(OC)cc3o2)c1
false

Now this one: O=C(CCCCCCN1CC(=O)N2[C@@H](c3ccc(Cl)s3)c3[nH]c4ccccc4c3C[C@H]2C1=O)NO
true

Now this one: C#Cc1nc(/C=C/C(=O)NO)cs1
true

Now this one: Cc1ccc2c(n1)C(=O)C(Cl)=C(Nc1ccc(C(C)C)cc1)C2=O
true

Now this one: NCCNC(=O)c1cccc(COc2ccccc2NC(=O)c2cc(Br)c(Br)[nH]2)c1
false

Now this one: NS(=O)(=O)c1nnc(/N=C/c2c(O)[nH]c3ccccc23)s1
false

Now this one: CN1CCN(c2ccc(Nc3nc(NCCNC(=O)c4ccc(F)cc4)c4sccc4n3)cc2)CC1
true

Now this one: CCOC(=O)c1cccc(NC2=C(Cl)C(=O)C(C)=C(C)C2=O)c1
false

Now this one: Cn1cc(-c2cc3ncnc(Nc4ccc(CC(=O)Nc5nc(C(C)(C)C)cs5)cc4)c3s2)cn1
true
